Assay: amyloid nucleation score (Sup35N fusion, yeast selection) (log enrichment); library NNK2; higher = more nucleation; inactive = no reads after selection;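 further: zero at mode of non-aggregating sequences after 7 days selection at 30°C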
measured parameter: amyloid nucleation score

> print(dat)
    biopolymer.sequence  observed
1  LTPIPFYNPDNISYYNAFPS  inactive
2  FINILKSSMLSVDWSLPIFN  inactive
3  MRFNDTENWGVSDVISSNDF  inactive

---

Below, each of the sequences is paired with its reported amyloid nucleation score value.
Test: amyloid nucleation score (Sup35N fusion, yeast selection) (log enrichment); library NNK3; higher = more nucleation; inactive = no reads after selection
Lab note: jot the number down without any unit.

> print(dat)
   biopolymer.sequence  observed
1       RQVFNAIAFFVLHR    -0.299

Give the measured amyloid nucleation score of SNRYKVCWCCPFLFRGVTRL .
1.94
